Entries and their MIC Esche--richin coil NIHJ
Test system: Escherichia coli NIHJ
assayMethodText: MIC, plate method, standard strains
Format: cell-based
appliedConditions: Table 3, standard strain; unit assumed

Field: example entries. Status: answers known.
compound | resultValue
CC(=O)OCCN1CCN(C(=O)NC(C(=O)NC2C(=O)N3C2SC(C)(C)C3C(=O)O)c2ccccc2)C(=O)C1=O (single isomer, unassigned) [Compound 41] | < 1.57 µg/mL
CC1(C)SC2C(NC(=O)C(NC(=O)N3CCN(CCCl)C(=O)C3=O)c3ccccc3)C(=O)N2C1C(=O)O (single isomer, unassigned) [Compound 44] | < 1.57 µg/mL
CCCCCCCCN1CCN(C(=O)N[C@@H](C(=O)N[C@@H]2C(=O)N3[C@@H]2SC(C)(C)[C@@H]3C(=O)O)c2ccccc2)C(=O)C1 [Compound 16] | < 1.57 µg/mL
CC1(C)S[C@@H]2[C@H](NC(=O)C(c3ccccc3)S(=O)(=O)O)C(=O)N2[C@H]1C(=O)O (stereo partly shown) [drawing 187, reference compound] | 1.57 µg/mL
CN1CCN(C(=O)NC(C(=O)NC2C(=O)N3C2SC(C)(C)C3C(=O)OCCN2CCCCC2)c2ccccc2)C(=O)C1=O (single isomer, unassigned) [compound 53] | < 0.4 µg/mL

**Q:** Item CC1(C)S[C@@H]2[C@H](NC(=O)[C@H](N)c3ccccc3)C(=O)N2[C@H]1C(=O)O [drawing 185, reference compound] has what recorded MIC Esche--richin coil NIHJ?
**A:** < 1.57 µg/mL

**Q:** # iterate: CCCCCCCCN1CCN(C(=O)NC(C(=O)NC2C(=O)N3C2SC(C)(C)C3C(=O)O)c2ccccc2)C(=O)C1=O (single isomer, unassigned) [Compound No. 47]
**A:** < 1.57 µg/mL

**Q:** Another compound to look at: CCCCCCN1CCN(C(=O)N[C@@H](C(=O)N[C@@H]2C(=O)N3[C@@H]2SC(C)(C)[C@@H]3C(=O)O)c2ccccc2)C(=O)C1 [Compound 13]
**A:** < 1.57 µg/mL

**Q:** Quick one: CN1CCN(C(=O)NC(C(=O)N[C@@H]2C(=O)N3[C@@H]2SC(C)(C)[C@@H]3C(=O)O)c2cccs2)C(=O)C1=O (stereo partly shown) [compound 58]
**A:** < 1.57 µg/mL

* * *

Test system: Proteus rettgeri
assayMethodText: MIC against clinical isolates
Type: cell-based
appliedConditions: Table 6-5, clinical isolate; unit assumed
observable: MIC Proteus rettgeri (µg/mL)
Entry rule: numbers only, all in µg/mL.

// worked examples, MIC Proteus rettgeri included
compound | unitName | resultValue
CCN1CCN(C(=O)NC(C(=O)NC2C(=O)N3C(C(=O)O)=C(CSc4nnnn4CC)CSC23)c2ccccc2)C(=O)C1=O (single isomer, unassigned) | µg/mL | 1.56
CCCCN1CCN(C(=O)NC(C(=O)NC2C(=O)N3C(C(=O)O)=C(CSc4nnnn4C)CSC23)c2ccccc2)C(=O)C1=O (single isomer, unassigned) | µg/mL | 3.13
Cn1nnnc1SCC1=C(C(=O)O)N2C(=O)C(NC(=O)C(NC(=O)N3CCN(CCO)C(=O)C3=O)c3ccccc3)C2SC1 (single isomer, unassigned) | µg/mL | 6.25
CCN1CCN(C(=O)NC(C(=O)NC2C(=O)N3C(C(=O)O)=C(CSc4nnnn4C)CSC23)c2ccc(O)cc2)C(=O)C1=O (stereo not shown) | µg/mL | 1.56
CCN1CCN(C(=O)NC(C(=O)NC2C(=O)N3C(C(=O)O)=C(CSc4nnnn4CC)CSC23)c2ccc(O)cc2)C(=O)C1=O (single isomer, unassigned) | µg/mL | 1.56
CCN1CCN(C(=O)NC(C(=O)NC2C(=O)N3C(C(=O)O)=C(CSc4nncs4)CSC23)c2ccc(O)cc2)C(=O)C1=O (single isomer, unassigned) | µg/mL | 3.13

Shift focus to the following entry.
**Q:** Short answer please: MIC Proteus rettgeri, Proteus rettgeri, entry CCCCCCCCN1CCN(C(=O)N[C@@H](C(=O)NC2C(=O)N3C(C(=O)O)=C(CSc4nnnn4C)CSC23)c2ccccc2)C(=O)C1=O (single isomer, unassigned)
**A:** 6.25

* * *

Tested on: Escherichia coli
assayMethodText: MIC against clinical isolates
Type: cell-based
appliedConditions: Table 6-2, clinical isolate; unit assumed
observable: MIC Escherichia coli GN 3465 (µg/mL)
Give your result in µg/mL as a bare value.

Sample records with MIC Escherichia coli GN 3465:
molecule | MIC Escherichia coli GN 3465 (µg/mL)
CCN1CCN(C(=O)NC(C(=O)NC2C(=O)N3C(C(=O)O)=C(CSc4nncs4)CSC23)c2ccc(O)cc2)C(=O)C1=O (single isomer, unassigned) | 3.13
CCN1CCN(C(=O)NC(C(=O)NC2C(=O)N3C(C(=O)O)=C(CSc4nnnn4CC)CSC23)c2ccccc2)C(=O)C1=O (single isomer, unassigned) | 6.25
CCCCCCCCN1CCN(C(=O)N[C@@H](C(=O)NC2C(=O)N3C(C(=O)O)=C(CSc4nnnn4C)CSC23)c2ccccc2)C(=O)C1=O (single isomer, unassigned) | 1.56

**Q:** Which value of MIC Escherichia coli GN 3465 has been reported for Cn1nnnc1SCC1=C(C(=O)O)N2C(=O)C(NC(=O)C(NC(=O)N3CCN(CCO)C(=O)C3=O)c3ccccc3)C2SC1 (single isomer, unassigned) in the records?
**A:** 6.25

**Q:** Record: CCN1CCN(C(=O)NC(C(=O)NC2C(=O)N3C(C(=O)O)=C(CSc4nnnn4CC)CSC23)c2ccc(O)cc2)C(=O)C1=O (single isomer, unassigned)
**A:** 1.56

**Q:** Then what about the molecule CCCCN1CCN(C(=O)NC(C(=O)NC2C(=O)N3C(C(=O)O)=C(CSc4nnnn4C)CSC23)c2ccccc2)C(=O)C1=O (single isomer, unassigned) ?
**A:** 1.56

**Q:** Same question, CCN1CCN(C(=O)NC(C(=O)NC2C(=O)N3C(C(=O)O)=C(CSc4nnnn4C)CSC23)c2ccc(O)cc2)C(=O)C1=O (stereo not shown) this time
**A:** 1.56

* * *

Tested on: Shigella flexneri
assayMethodText: MIC against clinical isolates
Assay type: cell-based
appliedConditions: Table 5-5, clinical isolate; unit assumed
Quick reference for MIC Shigella flexneri JS 11215 among some compounds
Return type: number; implicit unit µg/mL.

Here is how some compounds turned out for MIC Shigella flexneri JS 11215.
compound | MIC Shigella flexneri JS 11215 [µg/mL]
CCCCN1CCN(C(=O)N[C@@H](C(=O)N[C@@H]2C(=O)N3[C@@H]2SC(C)(C)[C@@H]3C(=O)O)c2ccccc2)C(=O)C1 | 25
CCCCCN1CCN(C(=O)NC(C(=O)NC2C(=O)N3C2SC(C)(C)C3C(=O)O)c2ccccc2)C(=O)C1=O (single isomer, unassigned) | 25
CC(=O)N1CCN(C(=O)N[C@@H](C(=O)N[C@@H]2C(=O)N3[C@@H]2SC(C)(C)[C@@H]3C(=O)O)c2ccccc2)C(=O)C1 | 100
CCCN1CCN(C(=O)NC(C(=O)NC2C(=O)N3C2SC(C)(C)C3C(=O)O)c2ccccc2)C(=O)C1=O (single isomer, unassigned) | 25
CC(C)N1CCN(C(=O)NC(C(=O)NC2C(=O)N3C2SC(C)(C)C3C(=O)O)c2ccccc2)C(=O)C1=O (single isomer, unassigned) | 50

**Q:** # query: MIC Shigella flexneri JS 11215 | item CCCCCCCCN1CCN(C(=O)N[C@@H](C(=O)N[C@@H]2C(=O)N3[C@@H]2SC(C)(C)[C@@H]3C(=O)O)c2ccccc2)C(=O)C1 | system: Shigella flexneri
**A:** 6.25

**Q:** Another compound to check: CCCCCCN1CCN(C(=O)N[C@@H](C(=O)N[C@@H]2C(=O)N3[C@@H]2SC(C)(C)[C@@H]3C(=O)O)c2ccccc2)C(=O)C1
**A:** 12.5

* * *

// reported MIC Pseudomonas aeruginosa GN 376 for each item listed
System: Pseudomonas aeruginosa
assayMethodText: MIC against clinical isolates
Format: cell-based
appliedConditions: Table 5-3, clinical isolate; unit assumed
A number alone suffices; assume µg/mL.

compound | assayedTarget | unitName | MIC Pseudomonas aeruginosa GN 376
CC(C)N1CCN(C(=O)NC(C(=O)NC2C(=O)N3C2SC(C)(C)C3C(=O)O)c2ccccc2)C(=O)C1=O (single isomer, unassigned) [Compound 40] | Pseudomonas aeruginosa | µg/mL | 3.13
CCN1CCN(C(=O)N[C@@H](C(=O)N[C@@H]2C(=O)N3[C@@H]2SC(C)(C)[C@@H]3C(=O)O)c2ccccc2)C(=O)C1=O [Compound 36] | Pseudomonas aeruginosa | µg/mL | 6.25

**Q:** Quick one: MIC Pseudomonas aeruginosa GN 376 for CCCN1CCN(C(=O)NC(C(=O)NC2C(=O)N3C2SC(C)(C)C3C(=O)O)c2ccccc2)C(=O)C1=O (single isomer, unassigned) [Compound 38] ?
**A:** 3.13

**Q:** Query CCCCCCCCN1CCN(C(=O)NC(C(=O)NC2C(=O)N3C2SC(C)(C)C3C(=O)O)c2ccccc2)C(=O)C1=O (single isomer, unassigned) [Compound No. 47] next
**A:** 50

**Q:** Next compound: CN1CCN(C(=O)NC(C(=O)NC2C(=O)N3C2SC(C)(C)C3C(=O)O)c2ccccc2)C(=O)C1=O (single isomer, unassigned) [Compound 37]
**A:** 12.5
